System under test: TSHR on TSHR-293T cells (Homo sapiens) (UniProt P16473)
Sequence (P16473 21-764): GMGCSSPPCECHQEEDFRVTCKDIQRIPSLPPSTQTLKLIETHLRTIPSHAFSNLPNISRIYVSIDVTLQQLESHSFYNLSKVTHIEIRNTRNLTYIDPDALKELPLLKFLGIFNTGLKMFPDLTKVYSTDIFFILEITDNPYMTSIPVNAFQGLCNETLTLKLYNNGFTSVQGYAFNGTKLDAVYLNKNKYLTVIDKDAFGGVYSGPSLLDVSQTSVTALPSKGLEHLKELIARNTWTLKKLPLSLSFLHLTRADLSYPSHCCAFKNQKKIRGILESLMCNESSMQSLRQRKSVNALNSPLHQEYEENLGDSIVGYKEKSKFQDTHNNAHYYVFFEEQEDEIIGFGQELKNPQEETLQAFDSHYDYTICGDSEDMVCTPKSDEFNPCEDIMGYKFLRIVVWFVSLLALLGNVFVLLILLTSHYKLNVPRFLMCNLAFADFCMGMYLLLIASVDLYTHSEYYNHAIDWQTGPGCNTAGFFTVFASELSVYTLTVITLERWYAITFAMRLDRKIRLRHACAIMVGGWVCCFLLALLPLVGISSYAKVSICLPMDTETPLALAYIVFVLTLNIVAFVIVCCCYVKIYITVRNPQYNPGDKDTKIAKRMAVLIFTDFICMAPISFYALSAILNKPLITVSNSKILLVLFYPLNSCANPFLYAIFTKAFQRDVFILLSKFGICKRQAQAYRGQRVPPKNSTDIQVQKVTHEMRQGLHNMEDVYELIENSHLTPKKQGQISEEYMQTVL
Assay protocol: flow cytometry
Measurement conditions: Flow: DPBS, 5 mM MgCl2, 4.5 g/L glucose, 0.1 mg/mL yeast tRNA, 1 mg/mL BSA, 4 C 30 min; SPR: DPBS, 5 mM Mg2+, pH 7.4, 25 C
Measured attribute: Kd
Give me the value, and tack the unit on after it.

## Input Consider the sequence shown here: ACCGACCGTGCTGGACTCAGATGAACAATCGATGGAAGATTGGGTCGCACCGGCCTCTTTCACTATGAGCGAGCCTGGCG [YC3] What is its recorded Kd?
## Output 0.26 µM
